# Tested on: HEK-293T
# TEST DETAILS: Multiplex assay against HEK293T
# Format: toxicity, cell-based
# PARTICULARS: human, 12 h, 10 µM, compound concentration 10 uM, replicate 1
Item-by-item account of Population Membrane Permeable-Phenotype (%)
Entry rule: numbers only, all in %.

Some solved entries appear below for comparison.
1) CC(C)(O)CNc1ncc(-c2ccnc(Nc3ccnc(Cl)c3)n2)c(CC2CC2)n1	13
2) Cc1sc2c(c1C)C(c1ccc(Cl)cc1)=N[C@@H](CC(=O)OC(C)(C)C)c1nnc(C)n1-2	3
3) CC[C@H](C)C(=O)O[C@H]1C[C@@H](C)C=C2C=C[C@H](C)[C@H](CC[C@@H]3C[C@@H](O)CC(=O)O3)[C@H]21	1

Briefly, Population Membrane Permeable-Phenotype (%) measured for `CCN(CC)CCCCNc1ncc2cc(-c3cc(OC)cc(OC)c3)c(NC(=O)NC(C)(C)C)nc2n1` : 26

Record O=C1NCN(c2ccccc2)C12CCN(CCCOc1ccc(F)cc1)CC2 [SPIRAMIDE] , field Population Membrane Permeable-Phenotype (%): 0

Record Cl.N#Cc1ccc2[nH]cc(CCCCN3CCN(c4ccc5oc(C(N)=O)cc5c4)CC3)c2c1 [VILAZODONE HYDROCHLORIDE] , field Population Membrane Permeable-Phenotype (%): 0

###

# Test system: HEK-293T
# TEST DETAILS: Multiplex assay against HEK293T
# Assay type: toxicity, cell-based
# PARTICULARS: human, 48 h, 1 µM, compound concentration 1 uM, replicate 1
ENDPOINT: Population Normal (%)
# output: bare number, implied unit %

Below, 5 molecules whose answers are already recorded.
1) Cc1cc(C)cc(-c2cnc3cc(Cl)c(-c4cccc(O)c4)cc3c2OCCCN)c1	81
2) C=CC(=O)Nc1cccc(C(=O)Nc2ccc(Nc3cc(-c4[nH]c(SC)nc4C)ccn3)cc2)c1	83
3) CN(C)C(=O)/C(C#N)=C/c1ccc(-c2nc3cnc4[nH]ccc4c3n2C2CCCCC2)o1	86
4) CN(C)CC#Cc1ccc(OCCCc2sc(N3CCc4cccc(C(=O)Nc5nc6ccccc6s5)c4C3)nc2C(=O)O)c(F)c1	82
5) Cc1nc(-c2ccc(-c3ccc(C(=O)N4CCc5cc6c(cc54)C4(CCN(C)CC4)CO6)cc3)c(C)c2)no1	87

Tested system HEK-293T; Population Normal (%) recorded for CN1CCC[C@@H]1CCO[C@](C)(c1ccccc1)c1ccc(Cl)cc1.O=C(O)/C=C/C(=O)O [CLEMASTINE FUMARATE] was 76

Summary line: `Cc1csc2c(N[C@@H](C)CN3CCN(S(=O)(=O)c4ccc(Cl)c(Cl)c4)CC3)ncnc12` , HEK-293T, reported Population Normal (%) = 82

The molecule `CNc1nc(NCc2ccc(NS(C)(=O)=O)cc2Cl)cc(-c2ccccn2)n1` , tested on HEK-293T, showed Population Normal (%) of 91

I looked up CN1CCCC(n2nc(Cc3ccc(Cl)cc3)c3ccccc3c2=O)CC1.Cl (stereo unspecified) [AZELASTINE HYDROCHLORIDE] and its Population Normal (%) for HEK-293T was 85

So the reported Population Normal (%) for `c1cn2cc(-c3ccc4cn[nH]c4c3)nc(Nc3ccc(N4CCOCC4)cc3)c2n1` , on HEK-293T, turned out to be 92

Population Normal (%) on HEK-293T for `CC(C)(O)CNc1ncc(-c2ccnc(Nc3ccnc(Cl)c3)n2)c(CC2CC2)n1` is 82
